test: Probe fluorescence ratio response to linolenic acid relative to ADIFAB2; assay type: binding; settings: response relative to ADIFAB2
Recorded DR/DR LNA by entry
Give the figure by itself; no unit, no explanation.

Reference set, count: 2
- Molecule: "70C, 72A (protein, listed as Rattus norvegicus, PEPTIDE (1)...(131) wild-type rat intestinal fatty acid binding protein) AFDGTWKVDRNENYEKFMEKMGINVVKRKLGAHDNLKLTITQEGNKFTVKESSNFRNIDVVFELGVDFACSAADGTELTGTWTMEGNKLVGKFKRVDNGKELIAVREISGNELIQTYTYEGVEAKRIFKKE"
  Observed Property: "DR/DR LNA"
  Observed: 0.24
- Molecule: "60T 104T 115W 74F 72A (protein, listed as Rattus norvegicus, PEPTIDE (1)...(131) wild-type rat intestinal fatty acid binding protein) AFDGTWKVDRNENYEKFMEKMGINVVKRKLGAHDNLKLTITQEGNKFTVKESSNFRNIDTVFELGVDFAYSAAFGTELTGTWTMEGNKLVGKFKRVDNGKELITVREISGNELIWTYTYEGVEAKRIFKKE"
  Observed Property: "DR/DR LNA"
  Observed: 2.017

// next entry
**Q:** Which DR/DR LNA is reported for this molecule? 34N, 72A (protein, listed as Rattus norvegicus, PEPTIDE (1)...(131) wild-type rat intestinal fatty acid binding protein) AFDGTWKVDRNENYEKFMEKMGINVVKRKLGAHNNLKLTITQEGNKFTVKESSNFRNIDVVFELGVDFAYSAADGTELTGTWTMEGNKLVGKFKRVDNGKELIAVREISGNELIQTYTYEGVEAKRIFKKE
**A:** 1.18
